target-of-assay: NaV1.7 S969A:D1761A double mutant (Homo sapiens, UniProt Q15858, E1761A/S969A)
particulars: read-out: IC50 of INa inhibition, S969A:D1761A double mutant channels
reported-property: IC50 (µM)
Quick reminder: number only, in µM, skip the unit.

I am curious: what IC50 value has been reported for CC/C(=C(\c1ccccc1)c1ccc(OCCNC)cc1)c1ccccc1 ?
36

* * *

target-of-assay: UniProt:Q15858
reported-property: IC50
Give the value; after it, write the unit.

Requested read-out IC50, target or system UniProt:Q15858, entry CC/C(=C(\c1ccccc1)c1ccc(OCCNC)cc1)c1ccccc1 [ND-Tam, N-desmethyl tamoxifen]
1.7 µM

* * *

System: endogenously expressed NaVs in cultured DRG neurons
method-description: Whole cell voltage clamp of sodium current
Assay type: cell-based, mouse
particulars: read-out: IC50 of DRG INa inhibition; −60 mV holding potential
reported-property: pIC50
Formally, pIC50 is defined as -log10 of the concentration c, with c in mol/L.

Quick one: pIC50 for CC/C(=C(\c1ccccc1)c1ccc(OCCNC)cc1)c1ccccc1 [ND-Tam, N-desmethyl tamoxifen] ?
6.95
